Each recorded value in this set is attributed to PubChem BioAssay (NCI).

- Test system: UACC-62 melanoma
- RUN DESCRIPTION: NCI-60 one-dose screen, 48 h (100 = growth as untreated, 0 = no growth, -100 = all killed)
- CONDITION SUMMARY: 10 µM unless noted
The panel holds about 83,000 compounds, 20% with a hit somewhere; the sample as a whole holds those more often.
This section presents compounds with their documented growth values.
Write the answer as a number in %, unit excluded.

Ask: What value of growth has been reported for the following compound? COC(=O)[C@@H](C)C[C@H](Cc1ccccc1)NC(=O)c1csc([C@@H](C[C@H](C(C)C)N(C)C(=O)[C@H](C)NC(=O)[C@H]2CCCCN2C)OC(C)=O)n1
Result: 28.4

Ask: Try the compound CCOC(=O)[C@@H](C)C[C@H](Cc1ccccc1)NC(=O)c1csc([C@@H](C[C@H](C(C)C)N(C)C(=O)[C@@H](NC(=O)[C@H]2CCCCN2C)C(C)(C)CC)OC(C)=O)n1
Result: 33.1

Ask: Try the compound COC(=O)[C@@H](C)C[C@H](Cc1ccc(F)cc1)NC(=O)c1csc([C@@H](C[C@H](C(C)C)N(C)C(=O)[C@@H](NC(=O)[C@H]2CCCCN2C)C(C)C)OC(C)=O)n1
Result: 42.2

Ask: Try the compound OCCCCCNC1CCCCC1
Result: 102

Ask: Try the compound CCCC[C@H](NC(=O)[C@H]1CCCN1C)C(=O)N(C)[C@H](C[C@@H](OC(C)=O)c1nc(C(=O)N[C@@H](Cc2ccccc2)C[C@H](C)C(=O)OCC)cs1)C(C)C
Result: 43.4

Ask: Try the compound C=CC1=C[C@@H]2[C@@H]3O[C@]4(CC[C@H](O4)[C@@H](C)C[C@@H](O)C3=O)C[C@H](O)C3=NCC[C@@]32CC1
Result: -68.3

Ask: Try the compound Clc1cc(N2CC2)nc(N2CC2)n1
Result: 54.4

###

- System: SF-539 CNS
- RUN DESCRIPTION: NCI-60 one-dose screen, 48 h
- CONDITION SUMMARY: 10 µM unless noted
Compounds without any hit were thinned out: in the full panel of roughly 83,000, 20% have a hit. Activity calls are given as the source filed them. The calls were made as follows: active = growth percent below 10; inactive = the rest.
Select the matching outcome among true (1) (active), false (0) (inactive)

The following molecules have reported results that may help.
MOLECULE	TARGET OF ASSAY	LABEL CLASS
COc1cc([N+](=O)[O-])c2nc(C)ccc2c1[N+](=O)[O-]	SF-539 CNS	false (0)
COc1cc2c(cc1OCCCCCn1c(-c3ccco3)nc3ccccc31)N=C[C@@H]1CCCN1C2=O	SF-539 CNS	true (1)
O=C(c1cccc(O)c1O)c1cn(Cc2ccc(F)cc2)c2cccc(O)c12	SF-539 CNS	false (0)
CN1CCCCC1C(C)(O)c1ccccc1 (stereo unspecified)	SF-539 CNS	false (0)
CN1CCC(O)(c2ccc(F)cc2)C(C(=O)c2ccc(F)cc2)C1 (stereo unspecified)	SF-539 CNS	false (0)

Ask: Identify the outcome logged in this assay for the molecule shown: O=[N+]([O-])c1ccc(OP(=O)(CCl)N(CCCl)CCCl)cc1 (stereo unspecified)
Result: false (0)

Ask: Try the molecule CC1[C@H](C)OC(=O)CC(O)CC(O)CC(O)CCC(O)C(O)C[C@]2(O)CC(O)C(C(=O)O)C(CC(OC3O[C@H](C)[C@@H](O)[C@H](N)[C@@H]3O)/C=C/C=C/C=C/C=C/CC/C=C/C=C/[C@H](C)[C@H]1O)O2 (stereo partly specified)
Result: false (0)

Ask: Try the molecule COc1ccc2c(c1)c(-c1nc(-c3c[nH]c4ncccc34)cs1)cn2CCN1CCOCC1
Result: false (0)

Ask: Try the molecule COC(=O)[C@@H](C)C[C@H](Cc1ccccc1)NC(=O)c1csc([C@@H](C[C@H](C(C)C)N(C)C(=O)C2(NC(=O)[C@H]3CCCCN3C)CC2)OC(C)=O)n1
Result: true (1)

Ask: Try the molecule COc1ccc(N(CC(=O)NCCC[Te]c2ccccc2)C(=O)CNC(=O)OC(C)(C)C)cc1
Result: true (1)

Ask: Try the molecule COC(=O)[C@]12CCC(C)(C)C[C@H]1[C@H]1C(=O)C[C@@H]3[C@@]4(C)C[C@@]5(CC(C)(C)[C@@H]4CC[C@@]3(C)[C@]1(C)CC2)OO[C@@](C)(C(F)(F)F)O5
Result: false (0)

Ask: Try the molecule CC(C)(C)C(=O)OCOP(=O)(OCOC(=O)C(C)(C)C)C1CCCN(O)C1=O (stereo unspecified)
Result: false (0)

Ask: Try the molecule CCN(CC)CCOC(=O)C(OC(C)C)(c1ccccc1)c1ccccc1
Result: false (0)

Ask: Try the molecule COC(=O)[C@@H](C)C[C@H](Cc1ccccc1)NC(=O)c1nc([C@@H](C[C@H](C(C)C)N(C)C(=O)[C@@H](NC(=O)[C@H]2CCCCN2C)C(C)C)OC(C)=O)sc1C
Result: true (1)

Ask: Try the molecule Cc1cc(C)cc(Nc2nc3c(s2)CC[C@@]2(C)C3=CC[C@@H]3[C@@H]2CC[C@]2(C)C(=O)CC[C@@H]32)c1
Result: false (0)

Ask: Try the molecule C=CC12CCN(CC1)C(C(O)c1ccnc3ccc(OC)cc13)C2 (stereo unspecified)
Result: false (0)
